Assay: Fluorescence quantum yield
Type: physicochemical
Conditions: CHCl3; Reference: S-13 with Φ=1.00
From the text: IR spectra: Perkin Elmer Spectrum BX II, using a diamond anvil cell; UV/Vis spectra: Varian Cary 5000 and Bruins Omega 20; fluorescence spectra: Varian Eclispe; NMR spectroscopy: Varian Vnmrs 600 (600 MHz, 400 MHz, 200 MHz); mass spectrometry: Thermo Finnigan LQT FT.
Overview of recorded Fluorescence quantum yield for various compounds

chemical_structure=CCOC(=O)CCCCN1C(=CC=CC2=[N+](CCCCC(=O)OCC)c3ccc4ccccc4c3C2(C)C)C(C)(C)c2c1ccc1ccccc21.[Br-] reported_value=0.43
chemical_structure=COC(=O)CCCCCCCCCCN1/C(=C\C=C\C2=[N+](CCCCCCCCCCC(=O)OC)c3ccc4c(S(=O)(=O)O)cccc4c3C2(C)C)C(C)(C)c2c1ccc1c(S(=O)(=O)O)cccc21.[Br-] reported_value=0.25
chemical_structure=CC1(C)C(/C=C/C=C2\N(CCCCS(=O)(=O)O)c3ccc4ccccc4c3C2(C)C)=[N+](CCCCS(=O)(=O)[O-])c2ccc3ccccc3c21 reported_value=0.32

Okay, next one:
Entry CC1(C)C(=CC=CC2=[N+](CCCCCC(=O)O)c3ccc4ccccc4c3C2(C)C)N(CCCCCC(=O)O)c2ccc3ccccc3c21.[Br-] : reported Fluorescence quantum yield = ?
0.50

----------
Test: Fluorescence quantum yield
Assay type: physicochemical
Settings: CHCl3; Reference: S-13 with Φ=1.00
VALUE TYPE: Fluorescence quantum yield
Write the value as a bare number.

Worked set:
chemical_structure=CC1(C)C(/C=C/C=C2\N(CCCCCCCCCCC(=O)O)c3ccc4c(S(=O)(=O)O)cccc4c3C2(C)C)=[N+](CCCCCCCCCCC(=O)O)c2ccc3c(S(=O)(=O)O)cccc3c21.[Br-] value_type="Fluorescence quantum yield" reported_value=0.31
chemical_structure=CC1(C)C(/C=C/C=C2\N(CCC(=O)O)c3ccc4ccccc4c3C2(C)C)=[N+](CCC(=O)O)c2ccc3ccccc3c21.[Br-] value_type="Fluorescence quantum yield" reported_value=0.35

Looking for the measured Fluorescence quantum yield of CC1(C)C(/C=C/C=C2\N(CCC(=O)O)c3ccc4c(S(=O)(=O)O)cccc4c3C2(C)C)=[N+](CCC(=O)O)c2ccc3c(S(=O)(=O)O)cccc3c21.[Br-] , can you help?
0.21

# query: Fluorescence quantum yield of entry CC1(C)C(=CC=CC2=[N+](CCCCCCCCCC(=O)O)c3ccc4ccccc4c3C2(C)C)N(CCCCCCCCCC(=O)O)c2ccc3ccccc3c21.[Br-]
0.59

Could you tell me which Fluorescence quantum yield is on file for CC1(C)C(=CC=CC2=[N+](CCCCCCCC(=O)O)c3ccc4ccccc4c3C2(C)C)N(CCCCCCCC(=O)O)c2ccc3ccccc3c21.[Br-] ?
0.43

Record request: Fluorescence quantum yield value, item CCOC(=O)CCCN1C(=CC=CC2=[N+](CCCC(=O)OCC)c3ccc4ccccc4c3C2(C)C)C(C)(C)c2c1ccc1ccccc21.[Br-]
0.61

What value of measured Fluorescence quantum yield is listed for CC1(C)C(=CC=CC2=[N+](CCCCCCCCCCS(=O)(=O)O)c3ccc4ccccc4c3C2(C)C)N(CCCCCCCCCCS(=O)(=O)O)c2ccc3ccccc3c21.[Br-] ?
0.14

----------
Where a name gives a salt, the structure may show the parent alone.
VALUE TYPE: melting point

compound="CC1(C)C(/C=C/C=C2\\N(CCC(=O)O)c3ccc4ccccc4c3C2(C)C)=[N+](CCC(=O)O)c2ccc3ccccc3c21.[Br-] (hydrate or solvate)" reported_value="199 °C"
compound=CC1(C)C(/C=C/C=C2\N(CCCCCCCCCCC(=O)O)c3ccc4c(S(=O)(=O)O)cccc4c3C2(C)C)=[N+](CCCCCCCCCCC(=O)O)c2ccc3c(S(=O)(=O)O)cccc3c21.[Br-] reported_value="> 150 °C (dec.)"

Request the reported melting point associated with COC(=O)CCCCCCCCCCN1/C(=C\C=C\C2=[N+](CCCCCCCCCCC(=O)OC)c3ccc4c(S(=O)(=O)O)cccc4c3C2(C)C)C(C)(C)c2c1ccc1c(S(=O)(=O)O)cccc21.[Br-]
> 150 °C (dec.)

# melting point lookup, item CC1(C)C(/C=C/C=C2\N(CCCCS(=O)(=O)O)c3ccc4ccccc4c3C2(C)C)=[N+](CCCCS(=O)(=O)[O-])c2ccc3ccccc3c21 (as salt: bromide)
> 250 °C

Fill in: melting point of CCOC(=O)CCCCCN1/C(=C\C=C\C2=[N+](CCCCCC(=O)OCC)c3ccc4c(S(=O)(=O)O)cccc4c3C2(C)C)C(C)(C)c2c1ccc1c(S(=O)(=O)O)cccc21.[Br-] is ___
> 150 °C (dec.)

----------
Structures can show the parent of a compound that is named as a salt.
Items are presented alongside their recorded melting point.

compound=CCOC(=O)CCCCN1/C(=C\C=C\C2=[N+](CCCCC(=O)OCC)c3ccc4c(S(=O)(=O)O)cccc4c3C2(C)C)C(C)(C)c2c1ccc1c(S(=O)(=O)O)cccc21.[Br-] reported_value="> 150 °C (dec.)"

Value lookup for melting point; key = CC1(C)C(/C=C/C=C2\N(CCCCS(=O)(=O)[O-])c3ccc4c(S(=O)(=O)O)cccc4c3C2(C)C)=[N+](CCCCS(=O)(=O)O)c2ccc3c(S(=O)(=O)O)cccc3c21 (as salt: bromide)
> 150 °C

So what does the record say about melting point for CCOC(=O)CCN1/C(=C\C=C\C2=[N+](CCC(=O)OCC)c3ccc4c(S(=O)(=O)O)cccc4c3C2(C)C)C(C)(C)c2c1ccc1c(S(=O)(=O)O)cccc21.[Br-] ?
> 150 °C (dec.)

What does the record list as melting point for CCCCCN1/C(=C\C=C\C2=[N+](CCCCC)c3ccc4ccccc4c3C2(C)C)C(C)(C)c2c1ccc1ccccc21.[Br-] ?
> 150 °C (dec.)

Please look up its melting point: CC1(C)C(/C=C/C=C2\N(CCC(=O)O)c3ccc4c(S(=O)(=O)O)cccc4c3C2(C)C)=[N+](CCC(=O)O)c2ccc3c(S(=O)(=O)O)cccc3c21.[Br-]
> 180 °C (dec.)

----------
Experiment: Fluorescence quantum yield
Type: physicochemical
Settings: CHCl3; Reference: S-13 with Φ=1.00
Fluorescence quantum yield less than 0.3 is 1; Fluorescence quantum yield greater than or equal to 0.3 is -1.

Worked set:
molecule="CCCCCN1/C(=C\\C=C\\C2=[N+](CCCCC)c3ccc4ccccc4c3C2(C)C)C(C)(C)c2c1ccc1ccccc21.[Br-] [Dye 6j]" label_class=1
molecule="CC1(C)C(=CC=CC2=[N+](CCCCC(=O)O)c3ccc4ccccc4c3C2(C)C)N(CCCCC(=O)O)c2ccc3ccccc3c21.[Br-] [Dye 3b]" label_class=-1
molecule="CCOC(=O)CCCCN1/C(=C\\C=C\\C2=[N+](CCCCC(=O)OCC)c3ccc4c(S(=O)(=O)O)cccc4c3C2(C)C)C(C)(C)c2c1ccc1c(S(=O)(=O)O)cccc21.[Br-] [Dye 6f]" label_class=1
molecule="CC1(C)C(=CC=CC2=[N+](CCCCCCCCCCC(=O)O)c3ccc4ccccc4c3C2(C)C)N(CCCCCCCCCCC(=O)O)c2ccc3ccccc3c21.[Br-] [Dye 3f]" label_class=-1
molecule="CC1(C)C(=CC=CC2=[N+](CCCCCS(=O)(=O)O)c3ccc4ccccc4c3C2(C)C)N(CCCCCS(=O)(=O)O)c2ccc3ccccc3c21.[Br-] [Dye 3u]" label_class=1

# TODO verify Fluorescence quantum yield < 0.3 strictly for this molecule: CCOC(=O)CCCCCCN1C(=CC=CC2=[N+](CCCCCCC(=O)OCC)c3ccc4ccccc4c3C2(C)C)C(C)(C)c2c1ccc1ccccc21.[Br-] [Dye 3p]
-1

# strict comparison: is reported Fluorescence quantum yield < 0.3? input = CC1(C)C(/C=C/C=C2\N(CCCCS(=O)(=O)[O-])c3ccc4c(S(=O)(=O)O)cccc4c3C2(C)C)=[N+](CCCCS(=O)(=O)O)c2ccc3c(S(=O)(=O)O)cccc3c21 [Dye 6a]
-1

Is Fluorescence quantum yield of CCOC(=O)CCN1C(=CC=CC2=[N+](CCC(=O)OCC)c3ccc4ccccc4c3C2(C)C)C(C)(C)c2c1ccc1ccccc21.[Br-] [Dye 3l] strictly below 0.3?
-1

API: query returns whether the molecule falls strictly under 0.3 in Fluorescence quantum yield. Query: COC(=O)CCCCN1C(=CC=CC2=[N+](CCCCC(=O)OC)c3ccc4ccccc4c3C2(C)C)C(C)(C)c2c1ccc1ccccc21.[Br-] [Dye 3i]
-1

Dear colleague, could you confirm whether Fluorescence quantum yield of COC(=O)CCCCCCCCCCN1C(=CC=CC2=[N+](CCCCCCCCCCC(=O)OC)c3ccc4ccccc4c3C2(C)C)C(C)(C)c2c1ccc1ccccc21.[Br-] [Dye 3k] falls below 0.3? Thanks.
-1

Input CCOC(=O)CCN1/C(=C\C=C\C2=[N+](CCC(=O)OCC)c3ccc4c(S(=O)(=O)O)cccc4c3C2(C)C)C(C)(C)c2c1ccc1c(S(=O)(=O)O)cccc21.[Br-] [Dye 6e] ; condition: Fluorescence quantum yield strictly below 0.3. Does it hold?
1

Please state whether Fluorescence quantum yield is below 0.3 for CCOC(=O)CCCCCN1C(=CC=CC2=[N+](CCCCCC(=O)OCC)c3ccc4ccccc4c3C2(C)C)C(C)(C)c2c1ccc1ccccc21.[Br-] [Dye 3o]
-1
